Tested on: U-87 MG
procedure.summary: 3H thymidine proliferation assay, U-87 MG
Type: cell-based, human
condition.details: 3H thymidine method, 72 h incubation; read-out: EC50, U-87 MG
metric: EC50 (pM)

- compound: "CC[C@H](C)[C@H](NC(=O)[C@H]1CCCCN1C)C(=O)N(C)[C@H](C[C@@H](OC)c1nc(C(=O)N[C@@H](Cc2ccccc2)C(=O)OC)cs1)C(C)C"
  metric: "EC50"
  reading.unit: "pM"
  qualifier.sign: ">"
  measured.result: 100000
- compound: "CC[C@H](C)[C@H](NC(=O)[C@H]1CCCCN1C)C(=O)N(COC(=O)CC(C)C)[C@H](C[C@@H](OC(C)=O)c1nc(C(=O)N[C@@H](Cc2ccccc2)C(=O)OC)cs1)C(C)C"
  metric: "EC50"
  reading.unit: "pM"
  qualifier.sign: "="
  measured.result: 64
- compound: "CC[C@H](C)[C@H](NC(=O)[C@H]1CCCCN1C)C(=O)N(COC(=O)CC(C)C)[C@H](C[C@@H](OC(C)=O)c1nc(C(=O)N[C@@H](Cc2ccccc2)C[C@H](C)C(=O)O)cs1)C(C)C [Tub D, tubulysin D, reference compound]"
  metric: "EC50"
  reading.unit: "pM"
  qualifier.sign: "="
  measured.result: 14
- compound: "CC[C@H](C)[C@H](NC(=O)[C@H]1CCCCN1C)C(=O)N(C)[C@H](C[C@@H](OC(C)=O)c1nc(C(=O)N[C@@H](Cc2ccc(N)cc2)C(=O)O)cs1)C(C)C"
  metric: "EC50"
  reading.unit: "pM"
  qualifier.sign: ">"
  measured.result: 100000
- compound: "CCC[C@H](NC(=O)[C@H](Cc1ccccc1)NC(=O)c1csc([C@@H](C[C@H](C(C)C)N(C)C(=O)[C@@H](NC(=O)[C@H]2CCCCN2C)[C@@H](C)CC)OC)n1)C(=O)OC"
  metric: "EC50"
  reading.unit: "pM"
  qualifier.sign: ">"
  measured.result: 100000

---

# reported EC50; entries follow
Test system: SK-BR3
procedure.summary: ATP luminescence proliferation assay, SK-BR3
Type: cell-based, human
condition.details: Homo sapiens, SK-BR-3, 48 h, read-out: EC50 SK-BR3 (48 h), ATP luminescence, SK-BR3, 48 h incubation

- compound: "CC[C@H](C)[C@H](NC(=O)[C@H]1CCCCN1C)C(=O)N(C)[C@H](C[C@@H](OC(C)=O)c1nc(C(=O)N[C@@H](Cc2ccc(N)cc2)CC(C)C(=O)O)cs1)C(C)C (stereo partly shown)"
  qualifier.sign: ">"
  EC50 / nM: 300
- compound: "CC[C@H](C)[C@H](NC(=O)[C@H]1CCCCN1C)C(=O)N(C)[C@H](C[C@@H](OC)c1nc(C(=O)N[C@@H](Cc2ccccc2)C(=O)N[C@@H](C)C(=O)OC)cs1)C(C)C"
  qualifier.sign: "="
  EC50 / nM: 8.9
- compound: "CC[C@H](C)[C@H](NC(=O)[C@H]1CCCCN1C)C(=O)N(C)[C@H](C[C@@H](OC)c1nc(C(=O)N[C@H](CC(=O)OC)Cc2ccccc2)cs1)C(C)C"
  qualifier.sign: ">"
  EC50 / nM: 3000
- compound: "CCCC(NC(=O)c1csc([C@@H](C[C@H](C(C)C)N(C)C(=O)[C@@H](NC(=O)[C@H]2CCCCN2C)[C@@H](C)CC)OC)n1)C(=O)OC (stereo partly shown)"
  qualifier.sign: "="
  EC50 / nM: 24
- compound: "CC[C@H](C)[C@H](NC(=O)[C@H]1CCCCN1C)C(=O)N(C)[C@H](C[C@@H](OC)c1nc(C(=O)NC(Cc2ccccc2)C[C@H](C)C(=O)O)cs1)C(C)C (stereo partly shown)"
  qualifier.sign: "="
  EC50 / nM: 3.9
- compound: "CC[C@H](C)[C@H](NC(=O)[C@H]1CCCCN1C)C(=O)N(C)[C@H](C[C@@H](OC)c1nc(C(=O)N[C@H](CCC(=O)OC)Cc2ccccc2)cs1)C(C)C"
  qualifier.sign: "="
  EC50 / nM: 253
- compound: "CC[C@H](C)[C@H](NC(=O)[C@H]1CCCCN1C)C(=O)N(COC(=O)CC(C)C)[C@H](C[C@@H](OC(C)=O)c1nc(C(=O)N[C@@H](Cc2ccc(N)cc2)CC(C)C(=O)O)cs1)C(C)C (stereo partly shown)"
  qualifier.sign: "="
  EC50 / nM: 6.2
